System: 3T3-L1
test_protocol: Anti-adipogenic activity in mouse 3T3L1 cells assessed as inhibition of adipogenesis after 20 mins by Oil Red O staining based assay
Assay type: functional, cell-based
assay_conditions: 3T3-L1, 20 min
pIC50: −log10 of the molar value.
Lab note: anything with pIC50 at or over 5 counts as Y; the rest go in N.

Consider the following illustrative entries.
INSERT INTO results (smiles_input, group) VALUES
  ('CC(=O)N(Cc1cccc(F)c1F)Cc1cn(S(=O)(=O)c2ccc(C)cc2)c2ccccc12', 'N'),
  ('Cc1ccc(S(=O)(=O)n2cc(CNCc3cccc(F)c3F)c3ccccc32)cc1', 'N'),
  ('Cc1ccc(S(=O)(=O)N(Cc2cn(Cc3cccc(F)c3F)nn2)Cc2cn(S(=O)(=O)c3ccc(C)cc3)c3ccccc23)cc1', 'Y');

Switching to the query record.
Evaluate `Cc1ccc(S(=O)(=O)n2cc(CN(Cc3cn(Cc4cccc(F)c4F)nn3)C(=O)C(F)(F)F)c3ccccc32)cc1` : pIC50 at minimum 5? N

Provenance of the data: ChEMBL document CHEMBL4138193
